Data provenance: PubChem BioAssay (NCI)

Tested on: HCT-116 colon
Assay: NCI tumour cell line growth inhibition, 48 h
Listing of entries alongside the reported GI50.
Measured Metric: GI50

INSERT INTO assay_data (compound, system_name, measured_metric, result) VALUES
  ('Cc1cc2nc3c4cc(O)ccc4n(CCN(C)C)c3nc2cc1C', 'HCT-116 colon', 'GI50', '0.397 µM'),
  ('Cc1nc([P+](c2ccccc2)(c2ccccc2)c2ccccc2)c(Sc2sc(-c3ccccc3)nc2[P+](c2ccccc2)(c2ccccc2)c2ccccc2)o1', 'HCT-116 colon', 'GI50', '0.896 µM'),
  ('O=c1c2c(=NCCN3CCCC3)cc3c(=O)n(CCCN4CCOCC4)c(=O)c4c(-c5ccc(CN6CCCC6)cc5)cc(c(O)n1CCCN1CCOCC1)c2c4-3', 'HCT-116 colon', 'GI50', '0.0101 µM'),
  ('Cc1cccc(N(C)C(=O)[C@@H]2[C@H](O)CCN2c2nc(C)cc(C(F)(F)F)c2C#N)c1', 'HCT-116 colon', 'GI50', '15.4 µM'),
  ('COc1ccc(C2CC(c3cccc(Nc4ccnc5cc(Cl)ccc45)c3)=NN2C=O)cc1 (stereo not drawn)', 'HCT-116 colon', 'GI50', '0.398 µM'),
  ('COC[C@@H](N=C1NC(=O)/C(=C/c2ccc3ncccc3c2)S1)c1ccccc1', 'HCT-116 colon', 'GI50', '8.73 µM'),
  ('OCCN1CCN(CCCN2c3ccccc3Sc3ccc(Cl)cc32)CC1', 'HCT-116 colon', 'GI50', '1.76 µM'),
  ('O=c1[nH]c2ccccc2c2ccccc12', 'HCT-116 colon', 'GI50', '> 100 µM'),
  ('CCN(CCCN(C)C)Cc1cc(I)cc(C)c1O', 'HCT-116 colon', 'GI50', '14.6 µM'),
  ('CCOC(=O)c1ccc(NC(=O)Nc2nncs2)cc1', 'HCT-116 colon', 'GI50', '0.109 µM'),
  ('CCC(C)[C@H]1O[C@]2(CC[C@@H]1C)C[C@@H]1C[C@@H](C/C=C(\C)[C@@H](OC3C[C@H](OC)C(O[C@H]4C[C@H](OC)[C@@H](O)[C@H](C)O4)[C@H](C)O3)[C@@H](C)/C=C/C=C3\CO[C@@H]4[C@H](O)C(C)=C[C@@H](C(=O)O1)[C@]34O)O2 (stereo partly drawn)', 'HCT-116 colon', 'GI50', '2.72 µM'),
  ('C/C(=N\NC(=S)N1CCCCC1)c1ccccn1', 'HCT-116 colon', 'GI50', '< 0.01 µM'),
  ('CCOC(=O)/C(=C/N1CCN(C(=O)c2ccco2)C1=S)C(=O)c1ccccc1', 'HCT-116 colon', 'GI50', '8.93 µM');

* * *

System: SR leukemia
Test: NCI tumour cell line growth inhibition, 48 h
Measured Metric: TGI

INSERT INTO results (compound, result) VALUES
  ('O=C1NC(Cc2ccc(O)cc2)C(=O)N2CCCC12 (stereo not given)', '> 100 µM'),
  ('CC1(C)O[C@@H]([C@H](O)CO)[C@H](O)[C@@H](C2SCCCS2)O1', '> 100 µM'),
  ('COc1cc(Nc2nc3cc(N)cc(N)c3nc2-c2ccccc2)cc(OC)c1OC', '16 µM'),
  ('O=c1c2cc(I)ccc2nc(SCc2nncs2)n1Cc1ccccc1', '> 100 µM'),
  ('COc1ccccc1NC(=S)NN=C(C)c1cccc(C(C)=NNC(=S)Nc2ccccc2OC)n1', '17.2 µM'),
  ('Cn1cnc([N+](=O)[O-])c1Sc1nc(N)nc2c1ncn2C1OC(CO)C(O)C1O (stereo not given)', '> 35.6 µM'),
  ('C/C(=C1/N=C(c2cc([N+](=O)[O-])ccc2Cl)N(c2cccc(C)c2)C1=O)c1cc2ccccc2oc1=O', '> 100 µM'),
  ('CCN(CC)c1ccc(/C=N/NC(=O)CSc2nc3ccccc3c(=O)n2CCc2ccc(S(N)(=O)=O)cc2)c(O)c1', '> 100 µM'),
  ('Cc1ccc(NC(Nc2ccc(C)cc2C)=C(C(Cl)=C(Cl)Cl)[N+](=O)[O-])c(C)c1', '11.3 µM'),
  ('N#Cc1nc(CCN2C(=O)c3ccccc3C2=O)oc1N', '> 100 µM');
